# target desc: T1, human ST2L, full length, on cells (human, UniProt Q01638 19-556)
# T1 sequence: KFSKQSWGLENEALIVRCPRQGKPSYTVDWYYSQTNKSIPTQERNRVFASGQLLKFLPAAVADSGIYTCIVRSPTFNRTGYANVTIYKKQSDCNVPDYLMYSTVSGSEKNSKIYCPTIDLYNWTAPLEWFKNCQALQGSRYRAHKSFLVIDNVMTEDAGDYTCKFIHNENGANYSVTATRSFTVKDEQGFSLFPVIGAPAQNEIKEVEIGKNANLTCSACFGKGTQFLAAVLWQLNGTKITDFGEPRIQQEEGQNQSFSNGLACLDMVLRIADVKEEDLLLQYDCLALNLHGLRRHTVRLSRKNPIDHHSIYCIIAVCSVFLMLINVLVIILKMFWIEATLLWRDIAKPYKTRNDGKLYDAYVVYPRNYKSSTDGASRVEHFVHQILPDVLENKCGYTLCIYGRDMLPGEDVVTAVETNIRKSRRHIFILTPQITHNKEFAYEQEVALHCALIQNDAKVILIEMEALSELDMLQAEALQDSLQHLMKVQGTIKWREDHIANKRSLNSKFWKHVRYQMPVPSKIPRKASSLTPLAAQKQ
# experiment summary: cell-based or functional assay
Please go through the items and note down their RGA IC50.
The answer is to be given in µg/mL; state only the numeric part.

# input Quick one: give measured RGA IC50 for STLM216 (antibody, V domains shown, frameworks VH3-23 / Vk-L6) VH: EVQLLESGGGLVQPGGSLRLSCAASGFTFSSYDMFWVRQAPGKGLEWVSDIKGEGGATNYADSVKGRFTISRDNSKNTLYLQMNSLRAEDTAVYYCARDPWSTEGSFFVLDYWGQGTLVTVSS VL: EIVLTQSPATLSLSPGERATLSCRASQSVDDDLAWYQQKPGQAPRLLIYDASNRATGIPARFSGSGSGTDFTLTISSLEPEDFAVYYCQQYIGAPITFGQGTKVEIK
# output 1.86

# input Hello, please tell me recorded RGA IC50 for this one: STLM209 (antibody, V domains shown, frameworks VH3-23 / Vk-L6) VH: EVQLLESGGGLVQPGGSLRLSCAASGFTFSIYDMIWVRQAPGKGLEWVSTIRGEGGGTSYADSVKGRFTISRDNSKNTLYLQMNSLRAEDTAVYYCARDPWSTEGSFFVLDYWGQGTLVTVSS VL: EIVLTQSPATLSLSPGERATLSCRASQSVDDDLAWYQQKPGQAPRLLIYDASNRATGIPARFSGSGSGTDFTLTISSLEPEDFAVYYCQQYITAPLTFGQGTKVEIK
# output 0.97

# input Complete the entry with RGA IC50 for STLM208 (antibody, V domains shown, frameworks VH3-23 / Vk-L6) VH: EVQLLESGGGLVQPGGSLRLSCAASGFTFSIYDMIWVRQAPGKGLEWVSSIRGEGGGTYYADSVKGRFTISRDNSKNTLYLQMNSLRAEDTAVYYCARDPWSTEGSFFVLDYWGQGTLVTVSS VL: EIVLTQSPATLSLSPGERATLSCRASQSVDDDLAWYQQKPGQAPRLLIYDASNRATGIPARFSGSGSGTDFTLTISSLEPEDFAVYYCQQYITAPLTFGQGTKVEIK
# output 0.61

# input Note RGA IC50 for the binder shown: STLM218 (antibody, V domains shown, frameworks VH3-23 / Vk-L6) VH: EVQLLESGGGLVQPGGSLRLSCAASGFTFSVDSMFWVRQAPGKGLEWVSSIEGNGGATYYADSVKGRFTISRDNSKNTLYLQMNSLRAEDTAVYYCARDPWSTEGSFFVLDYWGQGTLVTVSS VL: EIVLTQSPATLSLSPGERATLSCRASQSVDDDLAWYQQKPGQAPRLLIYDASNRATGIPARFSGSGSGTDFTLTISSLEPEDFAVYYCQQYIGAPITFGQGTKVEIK
# output 1.33

# input Report RGA IC50 for STLM212 (antibody, V domains shown, frameworks VH3-23 / Vk-L6) VH: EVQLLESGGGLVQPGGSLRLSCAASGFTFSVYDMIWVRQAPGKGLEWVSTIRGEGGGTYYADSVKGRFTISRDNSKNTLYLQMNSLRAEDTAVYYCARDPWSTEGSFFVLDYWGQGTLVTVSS VL: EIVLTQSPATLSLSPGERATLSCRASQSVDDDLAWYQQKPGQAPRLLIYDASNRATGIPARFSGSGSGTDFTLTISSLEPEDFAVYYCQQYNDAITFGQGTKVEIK
# output 4.32
